Target: JAK3 (Homo sapiens, UniProt P52333)
Sequence (P52333 whole entry): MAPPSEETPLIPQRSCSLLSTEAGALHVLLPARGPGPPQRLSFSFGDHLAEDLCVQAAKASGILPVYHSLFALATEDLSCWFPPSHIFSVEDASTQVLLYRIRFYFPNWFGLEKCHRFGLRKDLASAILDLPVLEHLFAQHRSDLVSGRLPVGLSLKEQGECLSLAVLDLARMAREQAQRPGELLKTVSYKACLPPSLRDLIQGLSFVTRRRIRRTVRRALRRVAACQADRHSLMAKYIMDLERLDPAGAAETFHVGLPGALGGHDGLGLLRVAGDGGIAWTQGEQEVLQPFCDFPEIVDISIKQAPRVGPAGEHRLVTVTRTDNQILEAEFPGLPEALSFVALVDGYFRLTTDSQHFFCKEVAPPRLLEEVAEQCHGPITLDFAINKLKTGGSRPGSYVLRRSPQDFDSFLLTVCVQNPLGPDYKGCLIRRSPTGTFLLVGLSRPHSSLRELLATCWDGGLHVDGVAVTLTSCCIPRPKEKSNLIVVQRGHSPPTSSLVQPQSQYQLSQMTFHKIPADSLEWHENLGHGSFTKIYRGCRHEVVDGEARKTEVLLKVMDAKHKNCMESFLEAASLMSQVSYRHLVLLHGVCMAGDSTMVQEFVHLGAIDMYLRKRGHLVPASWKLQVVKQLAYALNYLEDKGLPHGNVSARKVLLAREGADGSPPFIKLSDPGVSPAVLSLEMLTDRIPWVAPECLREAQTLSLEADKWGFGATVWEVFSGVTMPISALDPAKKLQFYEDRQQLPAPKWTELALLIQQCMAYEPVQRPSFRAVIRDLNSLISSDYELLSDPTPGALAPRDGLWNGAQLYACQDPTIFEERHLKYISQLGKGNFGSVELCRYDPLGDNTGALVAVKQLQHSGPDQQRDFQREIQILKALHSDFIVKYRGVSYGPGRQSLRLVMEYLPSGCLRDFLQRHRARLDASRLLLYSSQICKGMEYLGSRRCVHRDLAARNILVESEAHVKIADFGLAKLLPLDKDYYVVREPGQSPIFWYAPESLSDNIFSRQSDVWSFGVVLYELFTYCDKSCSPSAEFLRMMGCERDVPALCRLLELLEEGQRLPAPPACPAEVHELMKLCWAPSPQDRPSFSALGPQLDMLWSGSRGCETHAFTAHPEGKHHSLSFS
Assay: Inhibition of JAK kinase activity, EZ Reader microfluidic phosphorylation of peptide substrate: JAK3
Format: biochemical
Details: JAK3 kinase 1 nM; highest final concentration 10 μM, 1:3 serial dilution, 8 points, duplicates
quantity: IC50

Cn1cc(Nc2nccc(-c3cnn(C4(CC#N)CN(S(=O)(=O)CCC(F)(F)F)C4)c3)n2)cn1 ... 1 to 10 µM
Cn1cc(Nc2nccc(-c3cnn(C4(CC#N)CN(S(=O)(=O)C5CC5)C4)c3)n2)cn1 ... 1 to 10 µM
Cn1cc(Nc2nccc(-c3ccn(C4(CC#N)CN(S(=O)(=O)C5CCOCC5)C4)c3)n2)cn1 ... 1 to 10 µM
CCCS(=O)(=O)N1CC(n2cc(-c3ccnc(Nc4cnn(C)c4)n3)cn2)C1 ... ≥ 10 µM
CCC(=O)N1CC(n2cc(-c3ccnc(Nc4cnn(C)c4)n3)cn2)C1 ... ≥ 10 µM
Cn1cc(Nc2cc(-c3cnn(C4CN(C(=O)C5CC5(F)F)C4)c3)ccn2)cn1 (stereo not drawn) ... ≥ 10 µM
CCCS(=O)(=O)N1CCC(n2cc(-c3ccnc(Nc4cnn(C)c4)n3)cn2)C1 (stereo not drawn) ... 1 to 10 µM
CC(=O)N1CC(n2cc(-c3ccnc(Nc4cnn(C)c4)c3)cn2)C1 ... ≥ 10 µM
CC(=O)N1CCN(c2ccc(-c3ccnc(Nc4cnn(C)c4)n3)cc2)CC1 ... ≥ 10 µM
Cn1cc(Nc2nccc(-c3cnn(C4(CC#N)CN(C(=O)CC#N)C4)c3)n2)cn1 ... ≥ 10 µM

Notebook entry, JAK3 (Homo sapiens, UniProt P52333) assay: IC50 of `Cn1cc(Nc2nccc(-c3cnn(C4CN(C(=O)CC#N)C4)c3)n2)cn1` = ? ≥ 10 µM

Notebook entry, JAK3 (Homo sapiens, UniProt P52333) assay: IC50 of Cn1cc(Nc2nccc(-c3cnn(C4CN(C(=O)C5CC5(F)F)C4)c3)n2)cn1 (stereo not drawn) = ? ≥ 10 µM

Notebook entry, JAK3 (Homo sapiens, UniProt P52333) assay: IC50 of `Cn1cc(Nc2cc(-c3cnn(C4CN(C(=O)CC(F)(F)F)C4)c3)ccn2)cn1` = ? ≥ 10 µM

Notebook entry, JAK3 (Homo sapiens, UniProt P52333) assay: IC50 of `CCS(=O)(=O)N1CC(CC#N)(n2cc(-c3ccnc(Nc4cnn(C)c4)n3)cn2)C1` = ? 1 to 10 µM

Notebook entry, JAK3 (Homo sapiens, UniProt P52333) assay: IC50 of `Cn1cc(Nc2nccc(-c3cnn(C4CCN(C(=O)CO)CC4)c3)n2)cn1` = ? ≥ 10 µM

Notebook entry, JAK3 (Homo sapiens, UniProt P52333) assay: IC50 of `C=CCS(=O)(=O)N1CC(CC#N)(n2cc(-c3ccnc(Nc4cnn(C)c4)n3)cn2)C1` = ? 1 to 10 µM

Notebook entry, JAK3 (Homo sapiens, UniProt P52333) assay: IC50 of CCS(=O)(=O)N1CCC(n2cc(-c3ccnc(Nc4cnn(C)c4)n3)cn2)C1 (stereo not drawn) = ? 1 to 10 µM

Notebook entry, JAK3 (Homo sapiens, UniProt P52333) assay: IC50 of `Cn1cc(Nc2nccc(-c3ccn(C4(CC#N)CN(C(=O)CC(F)(F)F)C4)c3)n2)cn1` = ? 1 to 10 µM

Notebook entry, JAK3 (Homo sapiens, UniProt P52333) assay: IC50 of `CCC(=O)N1CCC(n2cc(-c3ccnc(Nc4cnn(C)c4)n3)cn2)CC1` = ? ≥ 10 µM

Notebook entry, JAK3 (Homo sapiens, UniProt P52333) assay: IC50 of `Cn1cc(Nc2nccc(-c3cnn(C4(CC#N)CN(C(=O)CC(F)(F)F)C4)c3)n2)cn1` = ? 1 to 10 µM

Notebook entry, JAK3 (Homo sapiens, UniProt P52333) assay: IC50 of Cn1cc(Nc2nccc(-c3cnn(C4CCN(C(=O)CC#N)C4)c3)n2)cn1 (stereo not drawn) = ? ≥ 10 µM

Notebook entry, JAK3 (Homo sapiens, UniProt P52333) assay: IC50 of `Cn1cc(Nc2nccc(-c3cnn(C4(CC#N)CN(S(=O)(=O)Cc5ccccc5)C4)c3)n2)cn1` = ? ≥ 10 µM

Notebook entry, JAK3 (Homo sapiens, UniProt P52333) assay: IC50 of `Cn1cc(Nc2nccc(-c3ccn(C4(CC#N)CN(C(=O)C5CC5)C4)c3)n2)cn1` = ? ≥ 10 µM

Notebook entry, JAK3 (Homo sapiens, UniProt P52333) assay: IC50 of `CCCS(=O)(=O)N1CC(n2cc(-c3ccnc(Nc4cnn(C)c4)c3)cn2)C1` = ? ≥ 10 µM

Notebook entry, JAK3 (Homo sapiens, UniProt P52333) assay: IC50 of `Cn1cc(Nc2nccc(-c3cnn(C4CN(C(=O)CC(F)(F)F)C4)c3)n2)cn1` = ? ≥ 10 µM

Notebook entry, JAK3 (Homo sapiens, UniProt P52333) assay: IC50 of CCC(=O)N1CCC(n2cc(-c3ccnc(Nc4cnn(C)c4)n3)cn2)C1 (stereo not drawn) = ? ≥ 10 µM

Notebook entry, JAK3 (Homo sapiens, UniProt P52333) assay: IC50 of `Cn1cc(Nc2nccc(-c3cnn(C4(CC#N)CN(S(=O)(=O)C5CCOCC5)C4)c3)n2)cn1` = ? ≥ 10 µM

Notebook entry, JAK3 (Homo sapiens, UniProt P52333) assay: IC50 of `Cn1cc(Nc2cc(-c3cnn(C4CN(C(=O)C5CC5)C4)c3)ccn2)cn1` = ? ≥ 10 µM

Notebook entry, JAK3 (Homo sapiens, UniProt P52333) assay: IC50 of `Cn1cc(Nc2nccc(-c3cnn(C4CCN(C(=O)CC(F)(F)F)CC4)c3)n2)cn1` = ? ≥ 10 µM

Notebook entry, JAK3 (Homo sapiens, UniProt P52333) assay: IC50 of `CCOCCS(=O)(=O)N1CC(CC#N)(n2cc(-c3ccnc(Nc4cnn(C)c4)n3)cn2)C1` = ? ≥ 10 µM

Notebook entry, JAK3 (Homo sapiens, UniProt P52333) assay: IC50 of Cn1cc(Nc2nccc(-c3ccn(C4(CC#N)CN(C(=O)C5CC5(F)F)C4)c3)n2)cn1 (stereo not drawn) = ? 1 to 10 µM

Notebook entry, JAK3 (Homo sapiens, UniProt P52333) assay: IC50 of `CCC(=O)N1CC(n2cc(-c3ccnc(Nc4cnn(C)c4)c3)cn2)C1` = ? ≥ 10 µM

Notebook entry, JAK3 (Homo sapiens, UniProt P52333) assay: IC50 of `CN1CCN(c2ccc(-c3ccnc(Nc4cnn(C)c4)n3)cc2)CC1` = ? ≥ 10 µM
